- Test system: DeltatarO mutant
- protocol summary: S. aureus survival, RN4220 and DeltatarO strains – OD600, teichoic acid synthesis inhibitors, primary screen (AID 463173)
- protocol conditions: S. aureus RN4220 wild type/DeltatarO growth, OD600, 18 h, active compounds read low, screened at 18.75 µg/mL (by protocol)
Out of some 52,000 compounds screened, about 4,300 (8.3%) were called active. Shown is part of a subset that was picked to be rich in actives.
Reported survival is given for each of the following compounds.

>  <compound>
Cc1ccc(-c2nn(CC(=O)NC3CCCC3)c3c2cnc2ccc(F)cc23)cc1C

>  <survival, %>
93

$$$$
>  <compound>
O=C(CCC1N=C2c3ccccc3N=C(SCc3ccccc3F)N2C1=O)NCc1ccc(F)cc1 (centres undefined)

>  <survival, %>
69

$$$$
>  <compound>
COc1ccccc1CNC(=O)CCC1N=C2c3ccccc3N=C(SCc3cccc(Cl)c3)N2C1=O (centres undefined)

>  <survival, %>
49

$$$$
>  <compound>
CCc1ccc2ncc3c(-c4ccc(C)cc4)nn(CC(=O)NCc4ccccc4)c3c2c1

>  <survival, %>
57

$$$$

====

- Test system: DeltatarO mutant
- protocol summary: S. aureus survival, RN4220 and DeltatarO strains – OD600, teichoic acid synthesis inhibitors, primary screen (AID 463173)
- protocol conditions: S. aureus RN4220 wild type/DeltatarO growth, OD600, 18 h, active compounds read low, screened at 18.75 µg/mL (by protocol)
The whole screen tested about 52,000 compounds, of which about 4,300 (8.3%) were called active. The full list was thinned out, with actives kept by preference.
measured property: survival (%)

>  <molecule>
Cc1c(-c2cccc(NC(=O)Nc3ccc(Cl)cc3)c2)nc2ncccn12

>  <unit abbrev>
%

>  <measured result>
-2

$$$$
>  <molecule>
CCS(=O)(=O)N1CCc2cc(C(=O)NCc3ccccc3Cl)ccc21

>  <unit abbrev>
%

>  <measured result>
89

$$$$
>  <molecule>
COc1ccccc1N1CCN(C(=O)c2ccc3c(c2)CCN3S(=O)(=O)c2ccccc2)CC1

>  <unit abbrev>
%

>  <measured result>
62

$$$$
>  <molecule>
Cc1ccccc1Nc1c(-c2ccc(N3CCOCC3)cc2)nc2ncccn12

>  <unit abbrev>
%

>  <measured result>
83

$$$$
>  <molecule>
Cc1ccccc1S(=O)(=O)Cc1ccc(C(=O)NCCc2ccccc2)o1

>  <unit abbrev>
%

>  <measured result>
76

$$$$
>  <molecule>
CCS(=O)(=O)N1CCc2cc(C(=O)NCc3ccccc3OC)ccc21

>  <unit abbrev>
%

>  <measured result>
40

$$$$
>  <molecule>
CCC(C)Nc1nc(OC(C(F)(F)F)C(F)(F)F)nc(N(CC)CC)n1 (centres undefined)

>  <unit abbrev>
%

>  <measured result>
80

$$$$
>  <molecule>
Cc1c(-c2cccc(NC(=O)Nc3ccccc3)c2)nc2ncccn12

>  <unit abbrev>
%

>  <measured result>
76

$$$$
>  <molecule>
CCOC(=O)c1ccc(NC(=O)Cn2nnc(-c3ccc(C(F)(F)F)cc3)n2)cc1

>  <unit abbrev>
%

>  <measured result>
87

$$$$

====

- System: DeltatarO mutant
- protocol summary: S. aureus survival, RN4220 and DeltatarO strains – OD600, teichoic acid synthesis inhibitors, primary screen (AID 463173)
- protocol conditions: S. aureus RN4220 wild type/DeltatarO growth, OD600, 18 h, active compounds read low, screened at 18.75 µg/mL (by protocol)
Out of some 52,000 compounds screened, about 4,300 (8.3%) were called active. The sample as a whole holds a higher share of actives than the screen did.

>  <molecule>
Cc1ccc(C)c(NC(=O)c2ccc(=O)n(Cc3ccc(F)cc3)c2)c1

>  <measurement target>
DeltatarO mutant

>  <unit abbrev>
%

>  <survival>
94

$$$$
>  <molecule>
O=C(NC1CCCCC1)c1ccc(S(=O)(=O)N2CCCC2)cc1

>  <measurement target>
DeltatarO mutant

>  <unit abbrev>
%

>  <survival>
79

$$$$
>  <molecule>
Cc1nc2nc(SCC(=O)NC(C)c3ccccc3)nn2c(C)c1Cc1c(F)cccc1Cl (centres undefined)

>  <measurement target>
DeltatarO mutant

>  <unit abbrev>
%

>  <survival>
68

$$$$
>  <molecule>
Cc1ccc2c(=O)cc(C(=O)Nc3ccc(S(=O)(=O)N(C)Cc4ccccc4)cc3)oc2c1C

>  <measurement target>
DeltatarO mutant

>  <unit abbrev>
%

>  <survival>
92

$$$$

====

- Tested on: DeltatarO mutant
- protocol summary: S. aureus survival, RN4220 and DeltatarO strains – OD600, teichoic acid synthesis inhibitors, primary screen (AID 463173)
- protocol conditions: S. aureus RN4220 wild type/DeltatarO growth, OD600, 18 h, screened at 18.75 µg/mL (by protocol)
Out of some 52,000 compounds screened, about 4,300 (8.3%) were called active. Rule as the data show it: active = survival mostly below about 52% (no sharp cut-off); inactive = mostly above about 56%. Many of the other results were omitted from the sample, so actives are more common in it than they were.
Possible outcomes: true for active, false for inactive

>  <molecule>
CCc1ccc(NC(=O)COC(=O)CCCC2=NS(=O)(=O)c3ccccc3N2)cc1

>  <class assignment>
false

$$$$
>  <molecule>
CCc1ccc(NC(=O)c2cccc(N3CCCS3(=O)=O)c2)cc1

>  <class assignment>
false

$$$$
>  <molecule>
CCOc1ccc(CCNC(=O)C(CC)n2nc(C)c3c(C)n(-c4ccccc4)nc3c2=O)cc1 (stereo unspecified)

>  <class assignment>
false

$$$$
>  <molecule>
C=CCn1c(C(=O)OCC)cc2oc(C)cc21

>  <class assignment>
false

$$$$
>  <molecule>
Oc1ccc2ccccc2c1/C=N/c1nccs1

>  <class assignment>
false

$$$$
>  <molecule>
CCOC(=O)c1cc2oc(C)cc2n1CCCN1C(=O)c2ccccc2C1=O

>  <class assignment>
true

$$$$
>  <molecule>
CCCNS(=O)(=O)c1ccc(CCC(=O)NCC2CCCO2)cc1 (stereo unspecified)

>  <class assignment>
false

$$$$
>  <molecule>
COC(=O)c1cc2occc2n1Cc1nc(-c2ccc(C)cc2)oc1C

>  <class assignment>
false

$$$$
>  <molecule>
COC(=O)c1cc2oc3ccccc3c2n1Cc1ccc(Cl)cc1

>  <class assignment>
false

$$$$
>  <molecule>
Cc1cc(Nc2ccccc2C)nc(-n2nc(C)cc2C)n1

>  <class assignment>
false

$$$$
>  <molecule>
COc1ccc(-c2cc(C)no2)cc1S(=O)(=O)N1CCN(c2ccc(C(C)=O)cc2)CC1

>  <class assignment>
false

$$$$
>  <molecule>
COC(=O)c1cc2oc3ccccc3c2n1Cc1ccc(C)cc1

>  <class assignment>
false

$$$$
>  <molecule>
O=C(COc1ccc(Cl)cc1)Nc1nnc2n1CCS2

>  <class assignment>
false

$$$$
>  <molecule>
COC(=O)c1cc2oc3ccccc3c2n1Cc1cccc(C)c1

>  <class assignment>
true

$$$$
>  <molecule>
CCOC(=O)c1cc2oc(C)cc2n1CC(=O)NC1CC1

>  <class assignment>
false

$$$$
>  <molecule>
CCOc1ccccc1NC(=O)COC(=O)CC(C)(C)CC1=NS(=O)(=O)c2ccccc2N1

>  <class assignment>
false

$$$$
>  <molecule>
COc1cc(NC(=O)CSc2nc(-c3ccco3)cc(C(F)(F)F)n2)cc(OC)c1OC

>  <class assignment>
false

$$$$
>  <molecule>
CCOC(=O)c1cc2c(=O)n3ccccc3nc2n(C)c1=NC(=O)c1c(-c2ccccc2Cl)noc1C

>  <class assignment>
false

$$$$
>  <molecule>
CCc1ccc(N(CC(=O)NCC2CCCO2)S(C)(=O)=O)cc1 (stereo unspecified)

>  <class assignment>
true

$$$$
>  <molecule>
CC(=O)c1ccc(N2CCN(C(=O)c3ccc(Cn4c(=O)[nH]c5ccccc5c4=O)cc3)CC2)cc1

>  <class assignment>
false

$$$$
>  <molecule>
Cc1cccc(Cn2c(SCc3ccc(C(=O)NCc4ccccc4F)cc3)nc3cccnc32)c1

>  <class assignment>
false

$$$$

====

Catalogue of survival values
- System: DeltatarO mutant
- protocol summary: S. aureus survival, RN4220 and DeltatarO strains – OD600, teichoic acid synthesis inhibitors, primary screen (AID 463173)
- protocol conditions: S. aureus RN4220 wild type/DeltatarO growth, OD600, 18 h, active compounds read low, screened at 18.75 µg/mL (by protocol)
Screen size: about 52,000 compounds; about 4,300 (8.3%) were called active. For the sample, actives were picked, then their nearest neighbours and some compounds at random.

>  <molecule>
COc1ccccc1NC(=O)CSc1ccc(-c2sc(C)nc2C)nn1

>  <unit abbrev>
%

>  <survival>
92

$$$$
>  <molecule>
Cc1ccc(CNC(=O)C(NS(=O)(=O)c2cccs2)C(C)C)cc1 (centres undefined)

>  <unit abbrev>
%

>  <survival>
61

$$$$
>  <molecule>
CCC(=O)C1=C(c2cccc([N+](=O)[O-])c2)N(C(=O)CC)n2c(nnc2C2CCCCC2)S1

>  <unit abbrev>
%

>  <survival>
91

$$$$
>  <molecule>
CCc1ccc(NC(=O)Cn2c(=O)n(Cc3ccc(C)cc3)c(=O)c3cccnc32)cc1

>  <unit abbrev>
%

>  <survival>
88

$$$$
